Target: CB2 (Homo sapiens, UniProt P34972)
Sequence (P34972 whole entry): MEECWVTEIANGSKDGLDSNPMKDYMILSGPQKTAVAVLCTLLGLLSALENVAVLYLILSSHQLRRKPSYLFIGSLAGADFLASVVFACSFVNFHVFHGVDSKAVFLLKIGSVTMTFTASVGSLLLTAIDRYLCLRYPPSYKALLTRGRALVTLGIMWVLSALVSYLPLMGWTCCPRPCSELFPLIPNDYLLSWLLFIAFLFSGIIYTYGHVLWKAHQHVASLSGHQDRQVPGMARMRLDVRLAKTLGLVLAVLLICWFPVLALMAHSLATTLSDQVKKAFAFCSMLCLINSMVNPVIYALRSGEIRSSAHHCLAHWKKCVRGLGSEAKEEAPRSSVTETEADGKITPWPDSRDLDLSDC
Test: β-arrestin2 recruitment assay
Type: cell-based
Conditions: EC50, CB2 β-arrestin2; Figure 1C
attribute-measured: EC50
Put your answer as a value accompanied by its unit after it.

Exam item: Tell me the measured EC50 of Cc1c(C(=O)NC23CC4CC(CC(C4)C2)C3)nn(CCCCCO)c1-c1ccccc1 [AM10257] , please.
Marked response: 0.53 nM

* * *

Target: CB2 T153L (Homo sapiens, UniProt P34972, T153L)
Sequence (P34972 whole entry T153L): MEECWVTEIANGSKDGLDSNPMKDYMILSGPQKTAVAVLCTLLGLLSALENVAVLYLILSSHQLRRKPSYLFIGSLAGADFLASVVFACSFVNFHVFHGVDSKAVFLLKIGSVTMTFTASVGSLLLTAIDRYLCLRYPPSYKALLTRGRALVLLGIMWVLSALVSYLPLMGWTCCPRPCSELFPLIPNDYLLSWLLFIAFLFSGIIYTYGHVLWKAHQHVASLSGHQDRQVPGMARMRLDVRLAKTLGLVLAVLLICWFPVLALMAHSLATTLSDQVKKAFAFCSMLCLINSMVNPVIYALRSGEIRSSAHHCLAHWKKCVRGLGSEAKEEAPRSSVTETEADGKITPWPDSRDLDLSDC
Test: Receptor activity at CB2 stabilizing point mutant T153L
attribute-measured: IC50
Put your answer as a value accompanied by its unit after it.

Exam item: Tell me the measured IC50 of Cc1c(C(=O)NC23CC4CC(CC(C4)C2)C3)nn(CCCCCO)c1-c1ccccc1 [AM10257] , please.
Marked response: 0.0462 µM
